meta.source: ChEMBL document CHEMBL1136900

- TEST: Drug level in mouse brain at 20 mg/kg, iv after 30 mins
- Type: ADME, organism-based
- Design: dose 20 mg/kg, route intravenous
- EXPERIMENTAL SETUP: read-out: Drug uptake
METRIC: concentration at 0.5 h (µM)
Number in µM, nothing else.

Request: Endpoint output: concentration at 0.5 h of Nc1nc(C2(c3ccc(Cl)cc3)CCCC2)cs1 . Value?
Result: 15

* * *

- TEST: Ratio of drug level in brain to plasma in mouse at 20 mg/kg, iv after 30 mins
- Type: ADME, organism-based
- Design: dose 20 mg/kg, route intravenous
- EXPERIMENTAL SETUP: brain and plasma, read-out: BPR
METRIC: Kp at 0.5 h

Request: Endpoint output: Kp at 0.5 h of Nc1nc(C2(c3ccc(Cl)cc3)CCCC2)cs1 . Value?
Result: 3.9
